Target: His-tagged BACE1 protein (Example 15) (Homo sapiens (Human), UniProt P56817 22-457)
Sequence (P56817 22-457 limits assumed): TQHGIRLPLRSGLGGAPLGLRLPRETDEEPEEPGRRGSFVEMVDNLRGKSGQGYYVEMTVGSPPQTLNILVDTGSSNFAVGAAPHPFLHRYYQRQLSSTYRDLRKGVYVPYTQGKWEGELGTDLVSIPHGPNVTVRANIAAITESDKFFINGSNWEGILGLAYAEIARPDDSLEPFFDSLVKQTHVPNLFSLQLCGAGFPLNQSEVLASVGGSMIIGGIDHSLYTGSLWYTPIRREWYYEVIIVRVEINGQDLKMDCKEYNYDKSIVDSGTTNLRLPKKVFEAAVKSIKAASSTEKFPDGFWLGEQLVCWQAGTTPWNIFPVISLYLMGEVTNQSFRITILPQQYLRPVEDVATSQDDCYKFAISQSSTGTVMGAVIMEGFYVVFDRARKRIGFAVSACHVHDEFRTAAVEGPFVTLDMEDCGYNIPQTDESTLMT
Assay: SPR (Biacore T200), Fab on captured His-BACE1;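 also: Single-cycle kinetics with serially diluted Fab flowed over BACE1 captured by anti-His antibody on a CM5 chip, rates fitted to a one-to-one Langmuir model, Kd derived as koff over kon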
propertyLabel: Kd (nM)
Numeric answer only, unit nM assumed.

# example entries with known answers
Field request: Kd | item: 6266.10 Fab (Fab, V domains shown) VH: QVQLVQSGAEVKKPGSSVKVSCKASGGTLSGYGVSWVRQAPGQGLEWMGNIIPGFGTANYAQKFQGRVTITADESTSTAYMELSSLRSEDTAVYYCARSGGTKYGMLDVWGQGTMVTVSS VL: EIVMTQSPATLSVSPGERATLSCRASQSVSSNLAWYQQKPGQAPRLLIYGASKRATGIPARFSGSGSGTEFTLTISSLQSEDFAVYYCQQLILWPPRTFGGGTKVEIK
0.69

What does the record list as Kd for 6266.13 Fab (Fab, V domains shown) VH: QVQLVQSGAEVKKPGSSVKVSCKASGGTLSGYGMSWVRQAPGQGLEWMGNIIPGFGTANYAQKFQGRVTITADESTSTAYMELSSLRSEDTAVYYCARSGGTKYGMLDVWGQGTMVTVSS VL: EIVMTQSPATLSVSPGERATLSCRASQSVSSNLAWYQQKPGQAPRLLIYGASTRATGIPARFSGSGSGTEFTLTISSLQSEDFAVYYCQQLILWPPRTFGGGTKVEIK ?
0.56

Here's the next entry for you.
Endpoint output: Kd of 6266.14 Fab (Fab, V domains shown) VH: QVQLVQSGAEVKKPGSSVKVSCKASGGTLSGYGVSWVRQAPGQGLEWMGNIIPGFGVANYAQKFQGRVTITADESTSTAYMELSSLRSEDTAVYYCARSGGTKWGMLDVWGQGTMVTVSS VL: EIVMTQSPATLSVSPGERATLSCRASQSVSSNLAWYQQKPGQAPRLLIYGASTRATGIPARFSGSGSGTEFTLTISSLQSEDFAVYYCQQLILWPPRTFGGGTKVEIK . Value?
0.57
